test system: OVCAR-4 ovarian; test: NCI tumour cell line growth inhibition, 48 h; in the data active = GI50 below about 0.43 µM; inactive = the rest
Hi there, use one of these labels in your reply, thanks! active, inactive

Data request: Entry "Cc1cccc(N(C)C(=O)[C@@H]2[C@H](O)CCN2c2nc(C)cc(C(F)(F)F)c2C#N)c1" : call = ?
Data returned: inactive

Data request: Entry "COC[C@@H](N=C1NC(=O)/C(=C/c2ccc3ncccc3c2)S1)c1ccccc1" : call = ?
Data returned: inactive

Data request: Entry "CC(=O)Nc1ccc2c(c1)C(c1ccccc1Cl)=Nc1c(n[nH]c1C)N2" : call = ?
Data returned: inactive

Data request: Entry "CCOC(=O)c1cc(C(=O)c2cc(OC)c(OC)c(OC)c2)n2ncccc12" : call = ?
Data returned: inactive

Data request: Entry "O=[N+]([O-])c1cccc2nc3ccccc3c(NCCCn3ccnc3[N+](=O)[O-])c12" : call = ?
Data returned: active

Data request: Entry CCCCCCCCCCCCOC1C(CNC(=O)C2OC3OC(C)(C)OC3C2NC(=O)Nc2ccc(CC(=O)OC)cc2)OC2OC(C)(C)OC21 (stereo not given) : call = ?
Data returned: inactive

Data request: Entry COc1ccc(C(c2cc(OC)c(OC)c(OC)c2)n2ccnc2)cc1O (stereo not given) : call = ?
Data returned: inactive

Data request: Entry "CCN1C/C(=C\c2cc(OC)c(OC)cc2OC)C(=O)/C(=C/c2cc(OC)c(OC)cc2OC)C1" : call = ?
Data returned: inactive

Data request: Entry "COc1ccc(/C=C/C(=O)c2cc(OC)c(OC)c(OC)c2)cc1OCC(=O)Nc1nc2ccc(OC(F)(F)F)cc2s1" : call = ?
Data returned: inactive

Data request: Entry "Cc1cc2nc3c4cc(O)ccc4n(CCN(C)C)c3nc2cc1C" : call = ?
Data returned: inactive

====

tested on: LOX IMVI melanoma; test: NCI tumour cell line growth inhibition, 48 h
experimental.endpoint: TGI (µM)
Number in µM, nothing else.

Data request: What does the data say about its TGI? Entry: "O=c1[nH]c(Nc2ccc(Cl)c(C(F)(F)F)c2)nc2nc[nH]c12"
Data returned: 81.7

Data request: What does the data say about its TGI? Entry: "COc1ccc(C/C(=N/O)C(=O)NCCc2cc(Br)c(OCCCN(C)C)c(Br)c2)cc1Br"
Data returned: 30.1

Data request: What does the data say about its TGI? Entry: N=C1OC(CN2CCN(c3ccccc3)CC2)CN1C(=S)Nc1ccccc1 (configuration not stated)
Data returned: 72.7

====

system: UO-31 renal; test: NCI tumour cell line growth inhibition, 48 h
For each entry below, report its TGI value.
Number in µM, nothing else.

Data request: What does the data say about its TGI? Entry: "S=c1[nH]nc(CNc2ccc(-c3n[nH]c(=S)n3-c3ccc(Cl)cc3)cc2)n1-c1ccc(Cl)cc1"
Data returned: 32.4

Data request: What does the data say about its TGI? Entry: "O=C(N/C(=C\c1ccc(Cl)cc1)c1nc2ccccc2[nH]1)c1ccccc1"
Data returned: 42.2

Data request: What does the data say about its TGI? Entry: CC(=O)O[C@H]1C(=O)[C@@]2(C)C(C(OC(=O)c3ccccc3)[C@]3(O)C[C@H](OC(=O)C(OC(=O)CCCC(=O)NCCCN(C)C)C(NC(=O)c4ccccc4)c4ccccc4)C(C)=C1C3(C)C)C1(OC(C)=O)COC1C[C@@H]2O (stereo partly drawn)
Data returned: 64

Data request: What does the data say about its TGI? Entry: "O=Nc1ccc(O)c(=O)cc1"
Data returned: 2.69

====

tested on: HOP-92 NSCLC; test: NCI tumour cell line growth inhibition, 48 h
experimental.endpoint: TGI (µM)
Number in µM, nothing else.

Data request: What does the data say about its TGI? Entry: "COc1ccc2c(c1OC)C[C@@H]1c3c(cc4c(c3-2)OCO4)CCN1C"
Data returned: 68.1

Data request: What does the data say about its TGI? Entry: "O=C(Cc1ccc(/C=C/C(=O)c2ncc[nH]2)cc1)Nc1ccc(F)cc1"
Data returned: 30.5

Data request: What does the data say about its TGI? Entry: "C/C(=N\NC(=S)N1CCCCC1)c1ccccn1"
Data returned: 4.54

Data request: What does the data say about its TGI? Entry: CCC(C)[C@H]1O[C@]2(CC[C@@H]1C)C[C@@H]1C[C@@H](C/C=C(\C)[C@@H](OC3C[C@H](OC)C(O[C@H]4C[C@H](OC)[C@@H](O)[C@H](C)O4)[C@H](C)O3)[C@@H](C)/C=C/C=C3\CO[C@@H]4[C@H](O)C(C)=C[C@@H](C(=O)O1)[C@]34O)O2 (stereo partly specified)
Data returned: 8.18

Data request: What does the data say about its TGI? Entry: "Nc1nc2c3nc(Nc4ccccc4)sc3nc(=S)n2c2sc(Nc3ccccc3)nc12"
Data returned: 52.3

Data request: What does the data say about its TGI? Entry: "CCN1C/C(=C\c2cc(OC)c(OC)cc2OC)C(=O)/C(=C/c2cc(OC)c(OC)cc2OC)C1"
Data returned: 17.8

Data request: What does the data say about its TGI? Entry: CC(C)C1C(=O)N(c2c(F)c(F)c(F)c(F)c2F)C(=S)N1CCS(=O)c1ccccc1 (stereo unspecified)
Data returned: 34.8

====

system: SK-OV-3 ovarian; assay: NCI tumour cell line growth inhibition, 48 h
experimental.endpoint: GI50

Data request: What does the data say about its GI50? Entry: "CCN1C/C(=C\c2cc(OC)c(OC)cc2OC)C(=O)/C(=C/c2cc(OC)c(OC)cc2OC)C1"
Data returned: 3.69 µM

Data request: What does the data say about its GI50? Entry: CCCCCCCCCCCCOC1C(CNC(=O)C2OC3OC(C)(C)OC3C2NC(=O)Nc2ccc(CC(=O)OC)cc2)OC2OC(C)(C)OC21 (centres undefined)
Data returned: > 100 µM

Data request: What does the data say about its GI50? Entry: "CCN(CC)c1ccc(/C=N/NC(=O)CSc2nc3ccccc3c(=O)n2CCc2ccc(S(N)(=O)=O)cc2)c(O)c1"
Data returned: 2.72 µM

Data request: What does the data say about its GI50? Entry: "OCCN1CCN(CCCN2c3ccccc3Sc3ccc(Cl)cc32)CC1"
Data returned: 3.04 µM

Data request: What does the data say about its GI50? Entry: "O=c1[nH]c2ccccc2c2ccccc12"
Data returned: 23.6 µM

Data request: What does the data say about its GI50? Entry: "Cc1cccc(N(C)C(=O)[C@@H]2[C@H](O)CCN2c2nc(C)cc(C(F)(F)F)c2C#N)c1"
Data returned: 24.1 µM

Data request: What does the data say about its GI50? Entry: COc1ccc(C(c2cc(OC)c(OC)c(OC)c2)n2ccnc2)cc1O (centres undefined)
Data returned: 0.465 µM

Data request: What does the data say about its GI50? Entry: "O=C(Oc1cccc2cccnc12)c1cc2c(cc1Cl)SC(N(c1ccc(F)cc1)S(=O)(=O)c1ccc(Br)s1)=NS2(=O)=O"
Data returned: > 100 µM

Data request: What does the data say about its GI50? Entry: "CC(=O)Nc1ccc2c(c1)C(c1ccccc1Cl)=Nc1c(n[nH]c1C)N2"
Data returned: > 25 µM

====

test system: HOP-62 NSCLC; experiment: NCI tumour cell line growth inhibition, 48 h
For each entry below, report its TGI value.
Number in µM, nothing else.

Data request: What does the data say about its TGI? Entry: c1ccc(-c2nnn3c2NC2=C(CCCC2)C3c2ccccc2)cc1 (stereo unspecified)
Data returned: 39.2

Data request: What does the data say about its TGI? Entry: "CS(=O)(=O)Nc1cncc(-c2ccc3ncnc(Nc4ccc(F)c(Cl)c4)c3c2)c1"
Data returned: 20.2

Data request: What does the data say about its TGI? Entry: "COc1ccc(C2=N[C@@H](Cc3ccccc3)C(=O)Nc3ccsc32)cc1"
Data returned: 19.1

Data request: What does the data say about its TGI? Entry: "COc1ccc2nc3c(C(=O)NCCN(C)C)cccc3cc2c1"
Data returned: 7.71

Data request: What does the data say about its TGI? Entry: "Clc1ccccc1/C=c1\nc(-c2ccccc2)n2c1nc1ccccc12"
Data returned: 50.3

Data request: What does the data say about its TGI? Entry: "Cc1nc([P+](c2ccccc2)(c2ccccc2)c2ccccc2)c(Sc2sc(-c3ccccc3)nc2[P+](c2ccccc2)(c2ccccc2)c2ccccc2)o1"
Data returned: 13.2

Data request: What does the data say about its TGI? Entry: Cc1cc2c(c(C=Nc3ccccc3O)c1)OC1(C=C2)Oc2ccccc2C(=O)N1C (stereo unspecified)
Data returned: 66.3

Data request: What does the data say about its TGI? Entry: "OCCN1CCN(CCCN2c3ccccc3Sc3ccc(Cl)cc32)CC1"
Data returned: 12.7

Data request: What does the data say about its TGI? Entry: "Cc1cc(NCCCCCCCCNc2cc(C)nc3cc(N)ccc23)c2ccc(N)cc2n1"
Data returned: 75.1
